Data provenance: ChEMBL document CHEMBL1123610

- Tested on: P388
- protocol-summary: In vivo antineoplastic activity against P388 leukemia screen inoculated intraperitoneally expressed as minimum effective dose
- Assay type: functional
- experimental-conditions: Mus musculus, P388, ip; read-out: MED
Threshold rule: minimal effective dose greater than or equal to 3 mg/kg is condition met; below that, condition not met.

These recorded examples may help you get a feel for the data.
1) CO[C@@]12[C@H](COC(N)=O)C3=C(C(=O)C(C)=C(N)C3=O)N1C[C@H]1[C@H]2N1C(=O)SC
condition met
2) CO[C@@]12[C@H](COC(N)=O)C3=C(C(=O)C(C)=C(N)C3=O)N1C[C@H]1[C@H]2N1C(=S)Sc1ccccc1
condition met
3) CO[C@@]12[C@H](COC(N)=O)C3=C(C(=O)C(C)=C(N)C3=O)N1C[C@H]1[C@H]2N1C(=S)Oc1ccccc1
condition met

Prompt line: # check: minimal effective dose of CO[C@@]12[C@H](COC(N)=O)C3=C(C(=O)C(C)=C(N)C3=O)N1C[C@H]1[C@H]2N1C(=O)Sc1ccccc1 is greater than or equal to 3 mg/kg
Response line: condition not met

Prompt line: # check: minimal effective dose of CO[C@@]12[C@H](COC(N)=O)C3=C(C(=O)C(C)=C(N)C3=O)N1C[C@H]1[C@H]2N1C(=O)Oc1ccccc1 is greater than or equal to 3 mg/kg
Response line: condition not met

Prompt line: # check: minimal effective dose of COC(=O)N1[C@H]2CN3C4=C(C(=O)C(N)=C(C)C4=O)[C@@H](COC(N)=O)[C@@]3(OC)[C@@H]21 is greater than or equal to 3 mg/kg
Response line: condition met

Prompt line: # check: minimal effective dose of CO[C@@]12[C@H](COC(N)=O)C3=C(C(=O)C(C)=C(N)C3=O)N1C[C@H]1[C@H]2N1/C(S)=N\c1ccccc1 is greater than or equal to 3 mg/kg
Response line: condition not met

====

- Tested on: P388
- protocol-summary: In vivo antineoplastic activity of mitomycin C sample run concurrently against P388 leukemia screen (optimal dosage)
- Format: functional, Mus musculus
In this section we review reported T/C values for a set of compounds.
Give your result in % as a bare value.

Past entries and their recorded results:
1) CNC(=O)N1[C@H]2CN3C4=C(C(=O)C(N)=C(C)C4=O)[C@@H](COC(N)=O)[C@@]3(OC)[C@@H]21
142
2) COC(=O)N1[C@H]2CN3C4=C(C(=O)C(N)=C(C)C4=O)[C@@H](COC(N)=O)[C@@]3(OC)[C@@H]21
275
3) CO[C@@]12[C@H](COC(N)=O)C3=C(C(=O)C(C)=C(N)C3=O)N1C[C@H]1[C@H]2N1C(=O)Nc1ccccc1
142
4) CO[C@@]12[C@H](COC(N)=O)C3=C(C(=O)C(C)=C(N)C3=O)N1C[C@H]1[C@H]2N1C(=O)SC
142
5) CO[C@@]12[C@H](COC(N)=O)C3=C(C(=O)C(C)=C(N)C3=O)N1C[C@H]1[C@H]2N1C(=S)Sc1ccccc1
172

The compound CNC(=S)N1[C@H]2CN3C4=C(C(=O)C(N)=C(C)C4=O)[C@@H](COC(N)=O)[C@@]3(OC)[C@@H]21 , tested on P388, showed T/C of 152

====

- System: P388
- protocol-summary: In vivo antineoplastic activity of mitomycin C sample run concurrently against P388 leukemia screen (optimal dosage)
- Assay type: functional, Mus musculus
In this section we review reported T/C values for a set of compounds.
Give your result in % as a bare value.

Past entries and their recorded results:
1) CO[C@@]12[C@H](COC(N)=O)C3=C(C(=O)C(C)=C(N)C3=O)N1C[C@H]1[C@H]2N1/C(S)=N\c1ccccc1
200
2) CO[C@@]12[C@H](COC(N)=O)C3=C(C(=O)C(C)=C(N)C3=O)N1C[C@H]1[C@H]2N1C(=O)Sc1ccccc1
275
3) CO[C@@]12[C@H](COC(N)=O)C3=C(C(=O)C(C)=C(N)C3=O)N1C[C@H]1[C@H]2N1C(=O)Oc1ccccc1
275

Lab note: next compound to report on.
The compound CO[C@@]12[C@H](COC(N)=O)C3=C(C(=O)C(C)=C(N)C3=O)N1C[C@H]1[C@H]2N1C(=S)Oc1ccccc1 , tested on P388, showed T/C of 152
